Ref: patent US20070066636A1

experiment: Moisture sorption/desorption analysis; type: physicochemical; conditions: after desorption at about 5% RH, 25 C; Tables 2C-2F (values fit change relative to initial weight)
Readout: Weight Change (%)
Kindly provide the numeric value in % only, without the unit symbol.

For the compound N#Cc1ccccc1Cn1c(N2CCC[C@@H](N)C2)ncc(F)c1=O [amorphous Form 2] , what Weight Change is on record?
0.433

Another: N#Cc1ccccc1Cn1c(N2CCC[C@@H](N)C2)ncc(F)c1=O [amorphous Form 1]
0.868

Another: N#Cc1ccccc1Cn1c(N2CCC[C@@H](N)C2)ncc(F)c1=O [Form E]
0.098

Another: N#Cc1ccccc1Cn1c(N2CCC[C@@H](N)C2)ncc(F)c1=O [Form C]
−0.899
